Hi there, I'd appreciate the recorded IC50 for every entry that follows.
- system-under-test: MAPK14/p38α (Homo sapiens)
- Sequence (Q16539 whole entry): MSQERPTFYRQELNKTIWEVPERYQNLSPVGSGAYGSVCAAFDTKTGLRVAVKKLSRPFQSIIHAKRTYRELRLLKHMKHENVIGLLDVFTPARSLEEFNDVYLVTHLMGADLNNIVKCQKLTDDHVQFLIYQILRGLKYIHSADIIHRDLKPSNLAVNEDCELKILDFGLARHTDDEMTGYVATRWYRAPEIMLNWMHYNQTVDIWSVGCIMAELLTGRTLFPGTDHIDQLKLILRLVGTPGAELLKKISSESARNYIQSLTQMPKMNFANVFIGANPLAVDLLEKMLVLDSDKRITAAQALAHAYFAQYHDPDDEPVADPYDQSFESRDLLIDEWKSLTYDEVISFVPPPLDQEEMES
- method-description: p38α MAP kinase activity based on the rate of phosphorylation of ATF-2 (TR-FRET)
- condition-context: 90 μM ATP, 0.4 μM GFP-ATF2 (19–96), 1 ng/mL MAPK14/p38α, 1 h RT; read-out: p38α MAP kinase inhibitory activity IC50
Give bare numbers, in nM.

[
  {
    "compound": "CCOc1ccc(CC(=O)N[C@H](Cc2cc(Br)c(OC)c(Br)c2)C(=O)NCCc2cc(Br)c(O)c(Br)c2)cc1 [Compound 4b]",
    "system-under-test": "MAPK14/p38α (Homo sapiens)",
    "recorded-endpoint": "IC50",
    "measured-value": 492
  },
  {
    "compound": "COc1c(Br)cc(C[C@@H](NC(=O)Nc2ccc(F)cc2)C(=O)NCCc2cc(Br)c(O)c(Br)c2)cc1Br [Compound 5l]",
    "system-under-test": "MAPK14/p38α (Homo sapiens)",
    "recorded-endpoint": "IC50",
    "measured-value": 110
  },
  {
    "compound": "CCCOc1ccc(NC(=O)NCCc2cc(Br)c(OC)c(Br)c2)cc1 [Compound 6c]",
    "system-under-test": "MAPK14/p38α (Homo sapiens)",
    "recorded-endpoint": "IC50",
    "measured-value": 701
  }
]

Read the next record carefully.
Value lookup for IC50; key = COc1c(Br)cc(C[C@@H](NC(=O)Cc2ccc(F)cc2)C(=O)NCCc2cc(Br)c(O)c(Br)c2)cc1Br [Compound 4l] 618
